Entries and their TGI values follow.
System: NCI-H460 lung
Assay: NCI tumour cell line growth inhibition, 48 h

These solved cases illustrate the format of a correct answer.
{"molecule": "O=C(O)CCC1COc2ccccc2O1 (stereo not given)", "measurementType": "TGI", "observed": "> 10 µM"}
{"molecule": "Cc1ccc(S(=O)(=O)N2CCC3(C(/C=C/c4ccccc4)=Nc4ccccc43)C2c2ccccc2)cc1 (stereo not given)", "measurementType": "TGI", "observed": "> 100 µM"}
{"molecule": "O=C1CN(c2ccc(Cl)cc2)C(=O)CN1CCN1CC(=O)N(c2ccc(Cl)cc2)CC1=O", "measurementType": "TGI", "observed": "> 100 µM"}

Look up and state reported TGI for CC(=O)O[C@H]1[C@@H]2[C@@H]3[C@@H](C[C@H]1C)[C@@H](C)CO[C@@]1(C)CC/C=C(/C)C[C@@H]2O[C@@H]31
> 100 µM

Dear colleague, please send me the reported TGI for C=C1C(=O)OC2/C=C(\C)C(O)CC(O)C(C)(O)CC(OC(=O)/C(C)=C/C)C12 (stereo not given) when you can.
> 100 µM

* * *

Entries and their measured TGI follow.
Test system: SK-MEL-2 melanoma
Test: NCI tumour cell line growth inhibition, 48 h

Here's what some known entries look like.
{"molecule": "O=C(O)Cc1ccc(N2N=C(c3ccccc3)CC2=O)cc1", "observed": "> 100 µM"}
{"molecule": "COC(=O)c1ccc2n1C1CC3CC(CC2C3)C1", "observed": "> 100 µM"}
{"molecule": "NC1=NC(c2ccccc2)N=C(Nc2ccccc2)N1 (centres undefined)", "observed": "> 100 µM"}
{"molecule": "O=[N+]([O-])c1ccc(/C=C/c2ccc(N=Nc3ccc(/C=C/c4ccc([N+](=O)[O-])cc4S(=O)(=O)O)c(S(=O)(=O)O)c3)cc2S(=O)(=O)O)c(S(=O)(=O)O)c1", "observed": "> 100 µM"}
{"molecule": "CC1=C(C(=O)OCCO[N+](=O)[O-])C(c2ccccc2C(F)(F)F)C(C(=O)OC(C)C)=C(C)N1 (centres undefined)", "observed": "29.7 µM"}
{"molecule": "COC(=O)NCCc1[nH]nc2c1C(=O)C=C(OC)C2=O", "observed": "> 100 µM"}
{"molecule": "Cn1c(N2CCCC2)c(C=O)c(=O)n(C)c1=O", "observed": "> 100 µM"}
{"molecule": "C=CCNC1=C(C(=O)OCC)C(=O)CO1", "observed": "> 100 µM"}
{"molecule": "O=c1ccc2ccccc2o1", "observed": "> 100 µM"}
{"molecule": "COc1ccc2nc(NCCCNCCO)c3sc4ccc(F)cc4c(=O)c3c2c1", "observed": "3.95 µM"}

Please report TGI for the following molecule: CCOC(OCC)C(CC)[Se]c1ccccc1[N+](=O)[O-] (centres undefined)
> 90.4 µM

Dear colleague, please send me the reported TGI for Cc1cc2c(cc1O)CC[C@@H]1[C@@H]2CC[C@]2(C)[C@@H](O)CC[C@@H]12 when you can.
19.8 µM

Return TGI for the following molecule: NCCNCC(O)CO (centres undefined)
> 100 µM

Specify measured TGI for NC(=O)N/N=C(\Cc1nc2ccc(C(=O)c3ccccc3)cc2[nH]c1=O)C(=O)Nc1ccc(Br)cc1 .
> 100 µM

* * *

# TGI per entry
Test system: UACC-257 melanoma
Experiment: NCI tumour cell line growth inhibition, 48 h

Here's what some known entries look like.
{"compoundStructure": "COc1ccc(-c2cc(-c3ccc(Nc4ccnc5cc(C(F)(F)F)ccc45)cc3)[nH]c(=O)c2C#N)c2ccccc12", "testedTarget": "UACC-257 melanoma", "TGI": "> 100 µM"}
{"compoundStructure": "CCOc1ccccc1NC(=O)CCc1nnc2s/c(=C\\CCc3ccccc3)c(=O)n12", "testedTarget": "UACC-257 melanoma", "TGI": "> 100 µM"}
{"compoundStructure": "Cc1ccc(C(=O)CC(Cl)=C(Cl)Cl)cc1", "testedTarget": "UACC-257 melanoma", "TGI": "> 100 µM"}

Moving on to the next molecule.
In one line, give reported TGI of the entry CC(C)(C)c1cc(-c2ccc(-c3cc(C(C)(C)C)c(O)c(C(C)(C)C)c3)cc2)cc(C(C)(C)C)c1O .
> 100 µM

* * *

Tested on: RPMI-8226 leukemia
Experiment: NCI tumour cell line growth inhibition, 48 h
measurementType: TGI

Recorded TGI, per entry:
{"compound": "c1ccc2c(c1)CCc1c-2n(CCN2CCCCC2)c2ccccc12", "observed": "40.3 µM"}
{"compound": "O=C(CSc1nnc(Cc2ccccc2)o1)Nc1ccc(Cl)cc1", "observed": "> 100 µM"}
{"compound": "Clc1ccc(OCc2nnc3sc(-c4ccc(-c5ccc(Cl)cc5Cl)o4)nn23)c(Cl)c1", "observed": "57.2 µM"}
{"compound": "NC1=NC(c2ccccc2)N=C(Nc2ccccc2)N1 (stereo unspecified)", "observed": "> 100 µM"}
{"compound": "O=C(O)c1cc2ccccc2c(N=Nc2c([N+](=O)[O-])cc([N+](=O)[O-])cc2S(=O)(=O)O)c1O", "observed": "> 100 µM"}
{"compound": "COc1cc2c3c(n(CCCN)c(=O)c2cc1OC)-c1ccc(F)cc1C3=O", "observed": "2.71 µM"}
{"compound": "NC(=O)c1[nH]nc(C2OC(CO)C(O)C2O)c1O (stereo unspecified)", "observed": "1830 µM"}
{"compound": "CC1=C/C(=N/N2C(=O)/C(=C/c3ccc(Cl)cc3)N=C2c2ccccc2)CC(C)(C)C1", "observed": "> 100 µM"}
{"compound": "CCOC(=O)c1c(C)n(Cc2ccccc2)c2c1cc(O)c1[nH]c3c(c12)CCCC3", "observed": "4.97 µM"}
{"compound": "C/C(=N\\NC(=O)CC(=O)Nc1ccc(Cl)cc1)c1cc2ccccc2oc1=O", "observed": "> 100 µM"}

Consider the compound N#C/C(=C/c1cccnc1)C(=O)c1ccccc1 . State its measured TGI.
> 100 µM

Please look at this compound and report its TGI: COc1ccc(/C=C2\CN(C)CC3=C2OC(N)=C(C#N)C3c2ccc(OC)cc2)cc1 (stereo unspecified)
> 43.9 µM

* * *

System: HOP-62 NSCLC
Test: NCI tumour cell line growth inhibition, 48 h
measurementType: TGI

Some compounds with known TGI results, for comparison:
{"compound": "O=C(CC/C(C/C(=N/O)c1ccc(F)cc1)=N/O)N(Cc1ccccc1)Cc1ccccc1", "TGI": "> 100 µM"}
{"compound": "COc1c2ccccc2c(O)c2c(=O)c(C(=O)O)cn(C)c12", "TGI": "> 100 µM"}

For the compound Cn1c(C(C#N)c2cc(Cl)ncn2)nc2ccccc21 (stereo not given) , give its reported TGI.
> 100 µM

For the compound Cc1cc(S(=O)(=O)Nc2nc3ccsc3c(=O)n2Cc2ccco2)c(S)cc1Cl , report TGI.
> 100 µM

Please give the documented TGI of CCC(=O)OCc1ccc2oc(=O)c(C(=O)Oc3cncc(Cl)c3)cc2c1
> 100 µM

Please report the measured TGI for COC1=CC(=O)C(O)=C(C[C@@]2(C)[C@@H]3CCC[C@H](COC(=O)CCCCCNC(=O)OC(C)(C)C)[C@@]3(C)CC[C@@H]2C)C1=O
> 10 µM

Respond only with TGI recorded for O=S(=O)(O)CCS
> 100 µM

Give reported TGI value for Oc1cc(Cl)cc2cc(Br)cnc12
> 55.1 µM

* * *

Test system: CCRF-CEM leukemia
Test: NCI tumour cell line growth inhibition, 48 h
Readings of log10 TGI for the listed compounds
Log10 applied to TGI; unit prior to transform: µM.

Return reported log10 TGI. Input compound: CCOC(=O)c1c(C)n(Cc2ccccc2)c2c1cc(O)c1[nH]c3c(c12)CCCC3
0.87

Supply reported log10 TGI belonging to this compound: COc1cc(/C=C/C(=O)c2cc(F)c(Cl)cc2Cl)cc(OC)c1OC
1.88

Please give the documented log10 TGI of Oc1ccc(-c2nc3cc(C(F)(F)F)ccc3n2CC2CCCN3CCCCC23)cc1 (stereo unspecified)
1.50

Please look at this compound and report its log10 TGI: COc1cc2cc(Oc3ccc(NC(=O)Nc4ccccc4)cc3)c(C)nc2cc1OCCN1CCCCC1
0.63

Provide one value: measured log10 TGI of Cc1cc2c(cc1O)CC[C@@H]1[C@@H]2CC[C@]2(C)[C@@H](O)CC[C@@H]12
1.44

* * *

System: U251 CNS
Assay: NCI tumour cell line growth inhibition, 48 h
Labels assigned by TGI range: bin 1 = under 3 µM, bin 2 = from 3 µM up to 20 µM, bin 3 = 20 µM and over

Solved cases (10 shown):
{"compound": "CCOC(OCC)C(CC)[Se]c1ccccc1[N+](=O)[O-] (stereo unspecified)", "classification": "bin 2"}
{"compound": "COc1cc(-c2oc3c(OC)c(OC)cc(O)c3c(=O)c2OC)ccc1O", "classification": "bin 3"}
{"compound": "Cc1ccc(S(=O)(=O)N2CCSCCSCCN(S(=O)(=O)c3ccc(C)cc3)CCN(S(=O)(=O)c3ccc(C)cc3)CC2)cc1", "classification": "bin 3"}
{"compound": "O=C1C(Cl)=C(Nc2ccc3cn[nH]c3c2)C(=O)c2ccccc21", "classification": "bin 1"}
{"compound": "COc1cc(NN=C(c2ccc(O)cc2)c2ccc(O)cc2)c([N+](=O)[O-])cc1[N+](=O)[O-]", "classification": "bin 3"}
{"compound": "O=C1c2cccnc2-c2nc(/C=C/c3ccccc3)cc3c2c1nc1ccccc13", "classification": "bin 2"}
{"compound": "COc1cccc(/C=C/C(=O)c2ccc(Cl)cc2Cl)c1OC", "classification": "bin 2"}
{"compound": "O=C1CN(c2ccc(Cl)cc2)C(=O)CN1CCN1CC(=O)N(c2ccc(Cl)cc2)CC1=O", "classification": "bin 3"}
{"compound": "COC(=O)C1OC(O[C@H]2CC[C@]3(C)[C@H]4CC=C5[C@@H]6CC(C)(C)CC[C@]6(C(=O)OC)[C@H](O)C[C@@]5(C)[C@]4(C)CC[C@H]3C2(C)C)C(O)C(O)C1O (stereo partly specified)", "classification": "bin 3"}
{"compound": "O=C(O)c1c(-c2c3ccc(=O)cc-3oc3cc(O)ccc23)cc2ccccc2c1-c1ccccc1", "classification": "bin 3"}

Bin? CC(C)(C)OC(=O)C1=C(C(=O)OC(C)(C)C)SC2(S1)C(C(=O)OC(C)(C)C)=C(C(=O)OC(C)(C)C)Sc1c2ssc1=O
bin 3

Kindly state the category for this compound: Cn1c(C(C#N)c2cc(Cl)ncn2)nc2ccccc21 (stereo unspecified)
bin 3

Kindly state the category for this compound: OC1C(O)C(O)C(O)C(O)C1O (stereo unspecified)
bin 3

Using the reported TGI, which band applies to CC(C)CCCC(C)[C@H]1CC[C@H]2[C@@H]3CC[C@H]4C[C@@H](CCC=C(c5cc(Cl)c(O)c(C(=O)OC(C)(C)C)c5)c5cc(Cl)c(O)c(C(=O)OC(C)(C)C)c5)CC[C@]4(C)[C@H]3CC[C@]12C (stereo partly specified) ?
bin 3

Band assignment needed for COC(=O)[C@@H]1c2cc3c(c(O)c2[C@@H](OC)C[C@@]1(C)O)C(=O)c1c(O)cc2c(c1C3=O)OC1O[C@@]2(C)[C@H](O)[C@@H](N(C)C)[C@@H]1O please.
bin 1

Please indicate the class for Oc1cc(Cl)cc2cc(Br)cnc12 based on its TGI.
bin 3

Which category does the recorded TGI put CCc1cccc(CC)c1NC(=S)NC(=O)c1ccc(Br)cc1 in?
bin 3

Which category does the recorded TGI put COc1c2ccccc2c(O)c2c(=O)c(C(=O)O)cn(C)c12 in?
bin 3

Kindly state the category for this compound: COc1ncc(-c2nc3c(n2C(C)C)[C@H](c2ccc(Cl)cc2)N(c2cc(Cl)cn(C)c2=O)C3=O)c(OC)n1
bin 3

Class (by measured TGI) for CC1=C(C2=C(C)C(=O)C(=O)c3cc(C)ccc32)c2ccc(C)cc2C(=O)C1=O
bin 1
